system: 653999-131-R-J2-PDC complex spheroids, growth inhibition; assay: Anticancer human tumor 653999-131-R-J2-PDC patient-derived lung adenocarcinoma cell line growth inhibition [RAS]; settings: second compound 0.00949 µM; first compound 0.0316 µM; hits give low values
Catalogue of viability, T/C values
The answer is to be given in %; state only the numeric part.

>  <molecule>
CC(C)n1nc(-c2ccc3oc(N)nc3c2)c2c(N)ncnc21 + CCn1c(-c2cccnc2C(C)OC)c2c3cc(ccc31)N1CCOC(CC(NC(=O)C(C(C)C)N(C)C(=O)C3(F)CCN(C(=O)C#CC(C)(C)N(C)C)CC3)C(=O)N3CCCC(N3)C(=O)OCC(C)(C)C2)C1

>  <units-label>
%

>  <viability, T/C>
41.1

$$$$

// viability, T/C value for Cc1nc(N2CCC3(CC2)COC(C)C3N)c(CO)nc1Sc1ccnc(N)c1Cl (configuration not stated) + CCn1c(-c2cccnc2C(C)OC)c2c3cc(ccc31)N1CCOC(CC(NC(=O)C(C(C)C)N(C)C(=O)C3(F)CCN(C(=O)C#CC(C)(C)N(C)C)CC3)C(=O)N3CCCC(N3)C(=O)OCC(C)(C)C2)C1 : 96

---

system: 653999-131-R-J2-PDC complex spheroids, growth inhibition; experiment: Anticancer human tumor 653999-131-R-J2-PDC cell line growth inhibition [RAS]; conditions: second compound 0.0949 µM; first compound 0.0316 µM; hits give low values;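 note: spheroids exposed to the agents for seven days before the readout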
recorded-endpoint: viability, T/C (%)
Entry rule: numbers only, all in %.

>  <molecule>
C=CC(=O)Nc1cc(Nc2nccc(-c3cn(C)c4ccccc34)n2)c(OC)cc1N(C)CCN(C)C + CCn1c(-c2cc(N3CCN(C)CC3)cnc2C(C)OC)c2c3cc(ccc31)-c1csc(n1)CC(NC(=O)C1CC1C)C(=O)N1CCCC(N1)C(=O)OCC(C)(C)C2

>  <viability, T/C, %>
20.9

$$$$
>  <molecule>
NC1c2ccccc2OC12CCN(c1cnc3c(N4CCCc5ncccc54)n[nH]c3n1)CC2 (centres undefined) + CCn1c(-c2cc(N3CCN(C)CC3)cnc2C(C)OC)c2c3cc(ccc31)-c1csc(n1)CC(NC(=O)C1CC1C)C(=O)N1CCCC(N1)C(=O)OCC(C)(C)C2

>  <viability, T/C, %>
17.6

$$$$
>  <molecule>
C=CC(=O)Nc1cc(Nc2nccc(-c3cn(C)c4ccccc34)n2)c(OC)cc1N(C)CCN(C)C + CCn1c(-c2cccnc2C(C)OC)c2c3cc(ccc31)N1CCOC(CC(NC(=O)C(C(C)C)N(C)C(=O)C3(F)CCN(C(=O)C#CC(C)(C)N(C)C)CC3)C(=O)N3CCCC(N3)C(=O)OCC(C)(C)C2)C1

>  <viability, T/C, %>
115

$$$$

Lookup result for CC(C)n1nc(-c2ccc3oc(N)nc3c2)c2c(N)ncnc21 + CCn1c(-c2cccnc2C(C)OC)c2c3cc(ccc31)N1CCOC(CC(NC(=O)C(C(C)C)N(C)C(=O)C3(F)CCN(C(=O)C#CC(C)(C)N(C)C)CC3)C(=O)N3CCCC(N3)C(=O)OCC(C)(C)C2)C1 ; measured viability, T/C: 44

---

tested on: 653999-131-R-J2-PDC complex spheroids, growth inhibition; assay: Anticancer human tumor 653999-131-R-J2-PDC cell line growth inhibition [RAS]; conditions: second compound 0.00316 µM; first compound 3.16 µM; hits give low values;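 note: spheroids exposed to the agents for seven days before the readout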
recorded-endpoint: viability, T/C (%)
The reply should be a number in %, with the unit left off.

Some compounds with known viability, T/C results, for comparison:
>  <compound>
CC1(O)CCCC1n1c(=O)c(C(F)F)cc2cnc(NC3CCN(S(C)(=O)=O)CC3)nc21 (stereo not drawn) + C=CC(=O)N1CCN(c2nc(OCC3CCCN3C)nc3c(F)c(-c4nc(N)cc(C)c4C(F)(F)F)c(Cl)cc23)C(C)C1

>  <units-label>
%

>  <viability, T/C>
75.9

$$$$
>  <compound>
NC1c2ccccc2OC12CCN(c1cnc3c(N4CCCc5ncccc54)n[nH]c3n1)CC2 (stereo not drawn) + C=CC(=O)N1CCN(c2nc(OCC3CCCN3C)nc3c(F)c(-c4nc(N)cc(C)c4C(F)(F)F)c(Cl)cc23)C(C)C1

>  <units-label>
%

>  <viability, T/C>
70.5

$$$$
>  <compound>
CCC(CC)c1cc(NC2CCC(N)C2)n2nccc2n1 (stereo not drawn) + C=CC(=O)N1CCN(c2nc(OCC3CCCN3C)nc3c(F)c(-c4nc(N)cc(C)c4C(F)(F)F)c(Cl)cc23)C(C)C1

>  <units-label>
%

>  <viability, T/C>
16.5

$$$$
>  <compound>
C[C@@H](NC(=O)c1ncnc(N)c1Cl)c1ncc(C(=O)Nc2cc(C(F)(F)F)c(Cl)cn2)s1 + C=CC(=O)N1CCN(c2nc(OCC3CCCN3C)nc3c(F)c(-c4nc(N)cc(C)c4C(F)(F)F)c(Cl)cc23)C(C)C1

>  <units-label>
%

>  <viability, T/C>
88.5

$$$$

// below: viability, T/C requested for another compound
Given item Cc1nc(N2CCC3(CC2)COC(C)C3N)c(CO)nc1Sc1ccnc(N)c1Cl (stereo not drawn) + C=CC(=O)N1CCN(c2nc(OCC3CCCN3C)nc3c(F)c(-c4nc(N)cc(C)c4C(F)(F)F)c(Cl)cc23)C(C)C1 , the value recorded as its viability, T/C is 83.3

---

system: 653999-131-R-J2-PDC complex spheroids, growth inhibition; assay: Anticancer human tumor 653999-131-R-J2-PDC cell line growth inhibition [RAS]; conditions: compound 0.003 µM; hits give low values;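 note: spheroids exposed to the agents for seven days before the readout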
recorded-endpoint: viability, T/C

>  <molecule>
CCc1c2c(nc3ccc(O)cc13)-c1cc3c(c(=O)n1C2)COC(=O)[C@]3(O)CC

>  <viability, T/C>
66.5% [middle of 4 runs]

$$$$
>  <molecule>
CCn1c(-c2cc(N3CCN(C)CC3)cnc2C(C)OC)c2c3cc(ccc31)-c1csc(n1)CC(NC(=O)C1CC1C)C(=O)N1CCCC(N1)C(=O)OCC(C)(C)C2 (centres undefined)

>  <viability, T/C>
65.2% [middle of 7 runs]

$$$$
>  <molecule>
CC1(C)CCC(Nc2ncc(C(F)(F)F)c(-c3c[nH]c4c(P(C)(C)=O)c(C#N)ccc34)n2)CN1 (centres undefined)

>  <viability, T/C>
75.3% [middle of 4 runs]

$$$$

API: the following record is the query input.
So for CCn1c(-c2cccnc2C(C)OC)c2c3cc(ccc31)N1CCOC(CC(NC(=O)C(C(C)C)N(C)C(=O)C3(F)CCN(C(=O)C#CC(C)(C)N(C)C)CC3)C(=O)N3CCCC(N3)C(=O)OCC(C)(C)C2)C1 (centres undefined) , the logged viability, T/C turned out to be 95.1% [middle of 8 runs]

---

The entries below come with measured viability, T/C values attached.
test system: 653999-131-R-J2-PDC complex spheroids, growth inhibition; assay: Anticancer human tumor 653999-131-R-J2-PDC cell line growth inhibition [RAS]; settings: second compound 3.16 µM; first compound 0.01 µM; hits give low values;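 note: spheroids exposed to the agents for seven days before the readout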
I only need the number, in %, no unit after it.

>  <compound>
Nc1ccn(C2OC(CO)C(O)C2(F)F)c(=O)n1 (stereo unspecified) + C#Cc1c(F)ccc2cc(O)cc(-c3ncc4c(N5CC6CCC(C5)N6)nc(OCC56CCCN5CC(F)C6)nc4c3F)c12

>  <units-label>
%

>  <viability, T/C>
28.4

$$$$

Note to self: viability, T/C recorded for CC(C)n1nc(-c2ccc3oc(N)nc3c2)c2c(N)ncnc21 + C#Cc1c(F)ccc2cc(O)cc(-c3ncc4c(N5CC6CCC(C5)N6)nc(OCC56CCCN5CC(F)C6)nc4c3F)c12 was 20.1

---

test system: 653999-131-R-J2-PDC complex spheroids, growth inhibition; assay: Anticancer human tumor 653999-131-R-J2-PDC cell line growth inhibition [RAS]; conditions: second compound 0.00949 µM; first compound 0.0316 µM; hits give low values;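 note: spheroids exposed to the agents for seven days before the readout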
recorded-endpoint: viability, T/C (%)
Give the value in % but do not write % after it.

>  <compound>
O=C(c1ccc(F)c(F)c1Nc1ccc(I)cc1F)N1CC(O)([C@@H]2CCCCN2)C1 + CCn1c(-c2cc(N3CCN(C)CC3)cnc2C(C)OC)c2c3cc(ccc31)-c1csc(n1)CC(NC(=O)C1CC1C)C(=O)N1CCCC(N1)C(=O)OCC(C)(C)C2

>  <units-label>
%

>  <viability, T/C>
34.1

$$$$

Let us move to another entry and its viability, T/C.
The value of viability, T/C measured for the compound O=C(c1ccc(F)c(F)c1Nc1ccc(I)cc1F)N1CC(O)([C@@H]2CCCCN2)C1 + CCn1c(-c2cccnc2C(C)OC)c2c3cc(ccc31)N1CCOC(CC(NC(=O)C(C(C)C)N(C)C(=O)C3(F)CCN(C(=O)C#CC(C)(C)N(C)C)CC3)C(=O)N3CCCC(N3)C(=O)OCC(C)(C)C2)C1 turned out to be 63.7

Data provenance is PubChem BioAssay AID2060886.
